biological target: α-glucosidase; test: α-glucosidase inhibitory activity, spectrophotometric p-nitrophenyl-α-D-glucopyranoside method; details: mean ± SEM of three parallel measurements; concentration range 50–100–200–400 μM; read-out: antidiabetic inhibition activity IC50 α-lucosidase
quantity-kind: pIC50
Expect pIC50 as a plain number equal to -log10 of the molar concentration.

Recorded pIC50, per entry:
> print(dat)
                  compound.structure.string  reported.measurement
1  O=C(/C=C/c1cccc(C(F)(F)F)c1F)c1ccc(N2CCCC2)cc1                  3.88
2  O=C(/C=C/c1cccc(OC(F)(F)F)c1)c1ccc(N2CCCC2)cc1                  3.83

# context switch: different compound, same pIC50
Note to self: pIC50 recorded for O=C(/C=C/c1ccccc1)c1ccc(N2CCCC2)cc1 was 4.30

----------
Some molecules, each annotated with its measured pIC50.
Biological target: α-glucosidase
Test: α-glucosidase inhibitory activity, spectrophotometric p-nitrophenyl-α-D-glucopyranoside method
Details: mean ± SEM of three parallel measurements; concentration range 50–100–200–400 μM; read-out: antidiabetic inhibition activity IC50 α-lucosidase
Procedure: Specifically, 50 μL of phosphate buffer (10 mM, pH 6.9), 25 μL of p-nitrophenyl-α-D-glucopyranoside in phosphate buffer (10 mM, pH 6.9), 10 μL of sample solution, and 25 μL of α-glucosidase (0.1 U/mL) in phosphate buffer (10 mM, pH 6.0) were combined in a 96-well microplate. After 20 min of incubation at 37 °C, 90 μL of Na2CO3 (100 mM) was added to each well to halt the enzymatic reaction. The absorbance was measured at 400 nm by using a 96-well microplate reader. […]
Note on units: pIC50 is unitless, being -log10 of a concentration expressed in mol/L.

> print(dat)
              compound.structure.string  tested.system  reported.measurement
1  O=C(/C=C/c1ccccc1F)c1ccc(N2CCCC2)cc1  α-glucosidase                  3.72

For record O=C(/C=C/c1ccccc1C(F)(F)F)c1ccc(N2CCCC2)cc1 the listed pIC50 is 3.76

response.value for O=C(/C=C/c1ccc(F)c(C(F)(F)F)c1)c1ccc(N2CCCC2)cc1 (field: pIC50) = 3.58

Record summary for O=C(/C=C/c1ccc(C(F)(F)F)cc1F)c1ccc(N2CCCC2)cc1 : reported pIC50 = 4.09
